EXPERIMENTAL SYSTEM: Env of HIV-1 strain R1166.c1 (HIV-1)
EXPERIMENTAL DETAILS: cell-based or functional assay
REPORTED PROPERTY: neutralization IC50 (µg/mL)
Numbers only; they are read as µg/mL.

Check out these entries, answers already filled in.
INSERT INTO results (binder, result_value) VALUES
  ('γ3κ3 (antibody, V domains shown) VH: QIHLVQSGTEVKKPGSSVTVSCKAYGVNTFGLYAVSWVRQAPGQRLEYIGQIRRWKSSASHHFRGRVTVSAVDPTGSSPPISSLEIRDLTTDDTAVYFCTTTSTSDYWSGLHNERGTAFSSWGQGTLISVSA VL: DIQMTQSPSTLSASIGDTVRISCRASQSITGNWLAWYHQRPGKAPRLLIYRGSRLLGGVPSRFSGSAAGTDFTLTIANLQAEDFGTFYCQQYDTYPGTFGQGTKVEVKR', 2.2),
  ('γ46κ61 (antibody, V domains shown) VH: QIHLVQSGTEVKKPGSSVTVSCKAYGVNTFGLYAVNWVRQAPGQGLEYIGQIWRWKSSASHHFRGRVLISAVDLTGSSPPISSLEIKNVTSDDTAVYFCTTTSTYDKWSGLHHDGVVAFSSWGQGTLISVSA VL: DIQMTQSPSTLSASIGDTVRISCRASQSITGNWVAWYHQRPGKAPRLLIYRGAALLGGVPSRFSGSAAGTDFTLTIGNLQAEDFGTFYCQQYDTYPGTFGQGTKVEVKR', 2.58),
  ('γ15κ61 (antibody, V domains shown) VH: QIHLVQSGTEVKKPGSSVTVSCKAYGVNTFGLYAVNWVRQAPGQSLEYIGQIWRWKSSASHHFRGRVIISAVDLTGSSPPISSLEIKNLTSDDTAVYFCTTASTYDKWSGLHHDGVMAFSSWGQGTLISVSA VL: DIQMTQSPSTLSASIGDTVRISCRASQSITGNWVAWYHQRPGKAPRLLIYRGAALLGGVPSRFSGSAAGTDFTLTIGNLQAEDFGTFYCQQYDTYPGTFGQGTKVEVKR', 6.55),
  ('8ANC195 IgG (antibody, V domains shown) VH: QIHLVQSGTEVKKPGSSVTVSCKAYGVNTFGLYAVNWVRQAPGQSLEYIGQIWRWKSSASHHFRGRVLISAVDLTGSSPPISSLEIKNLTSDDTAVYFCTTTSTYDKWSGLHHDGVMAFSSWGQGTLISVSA VL: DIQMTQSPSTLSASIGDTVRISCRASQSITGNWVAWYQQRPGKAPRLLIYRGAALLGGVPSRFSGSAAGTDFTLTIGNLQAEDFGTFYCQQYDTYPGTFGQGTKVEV', 0.986),
  ('γ52κ61 (antibody, V domains shown) VH: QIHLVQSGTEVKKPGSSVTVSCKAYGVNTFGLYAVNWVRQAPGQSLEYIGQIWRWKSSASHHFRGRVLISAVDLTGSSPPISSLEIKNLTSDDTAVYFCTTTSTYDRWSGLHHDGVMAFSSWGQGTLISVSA VL: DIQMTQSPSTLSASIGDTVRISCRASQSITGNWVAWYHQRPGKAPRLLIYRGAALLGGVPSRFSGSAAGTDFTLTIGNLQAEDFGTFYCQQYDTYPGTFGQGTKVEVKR', 1.64);

**Q:** Please give the measured neutralization IC50 for this binder: γ8κ11 (antibody, V domains shown) VH: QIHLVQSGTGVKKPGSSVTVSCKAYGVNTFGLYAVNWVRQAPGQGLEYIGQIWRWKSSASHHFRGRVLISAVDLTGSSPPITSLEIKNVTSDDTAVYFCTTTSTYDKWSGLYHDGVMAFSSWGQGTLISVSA VL: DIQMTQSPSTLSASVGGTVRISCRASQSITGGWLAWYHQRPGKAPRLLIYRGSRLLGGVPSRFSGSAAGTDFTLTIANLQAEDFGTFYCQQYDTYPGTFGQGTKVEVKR
**A:** 3.88

**Q:** What do you have for 8ANC3040 (antibody, V domains shown) VH: QIHLVQSGTEVKKPGSSVTVSCKAYGVNTFGLYAVNWVRQAPGQSLEYIGQIWRWKSSASHHFRGRVLISAVDLTGSSPPISSLEIKNLTSDDTAVYFCTTTSTYDQWSGLHHDGVMAFSSWGQGTLISVSA VL: DIQMTQSPSTLSASIGDTVRISCRASQSITGNWVAWYQQRPGKAPRLLIYRGAALLGGVPSRFSGSAAGTDFTLTIGNLQAEDFGTFYCQQYDTYPGTFGQGTKVEVKR ?
**A:** 2.37

**Q:** What do you have for γ52κ18 (antibody, V domains shown) VH: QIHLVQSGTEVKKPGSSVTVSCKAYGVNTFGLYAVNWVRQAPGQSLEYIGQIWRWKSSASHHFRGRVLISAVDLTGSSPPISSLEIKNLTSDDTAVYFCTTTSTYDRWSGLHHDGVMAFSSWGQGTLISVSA VL: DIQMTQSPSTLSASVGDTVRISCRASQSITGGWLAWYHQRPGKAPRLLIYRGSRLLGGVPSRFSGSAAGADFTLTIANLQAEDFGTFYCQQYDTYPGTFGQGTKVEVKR ?
**A:** 1.35

meta.source: patent US20180171001A1
